- Species on record: Rattus norvegicus
- testMethodNotes: Inhibition of rat recombinant geranylgeranyltransferase type I expressed in Escherichia coli assessed as residual enzyme activity for geranylgeranylation of K-Ras4B at 50 uM incubated for 30 mins in presence of [3H]GGPP by scintillation counting assay relative to control
In this section we review reported Activity values for a set of molecules.

Here's what some known entries look like.
Cc1ccc(S(=O)(=O)N2[C@@H](c3cccc(Br)c3)C(C(=O)O)=CC[C@H]2c2cccc(Cl)c2)cc1; 11 to 23.1%
Cc1ccc(S(=O)(=O)N2C[C@@H](C(=O)O)[C@H](SCCc3ccccc3)C[C@H]2c2ccc(Cl)cc2)cc1; 15.1 to 20.8%

# ---- query molecule ----
Lookup result for `Cc1ccc(S(=O)(=O)N2C[C@@H](C(=O)O)[C@H](SCc3ccccc3)C[C@H]2c2ccc(Cl)cc2)cc1` ; measured Activity: 11.5 to 15.8%

====

In this section we review reported Activity values for a set of compounds.
- Species: Rattus norvegicus
- testMethodNotes: Inhibition of rat recombinant geranylgeranyltransferase type I expressed in Escherichia coli assessed as residual enzyme activity for geranylgeranylation of K-Ras4B at 50 uM incubated for 30 mins in presence of [3H]GGPP by scintillation counting assay relative to control

Some solved cases for reference:
Cc1ccc(S(=O)(=O)N2[C@@H](c3ccc(Br)cc3)C(C(=O)O)=CC[C@H]2c2ccc(Cl)c(Cl)c2)cc1; 18.7 to 22.8%
Cc1ccc([C@@H]2C[C@@H](SCCc3ccccc3)[C@H](C(=O)O)CN2S(=O)(=O)c2ccccc2C)cc1; 10.2 to 13.8%

Please turn your attention to the following entry.
Activity measured on `CCOc1ccc([C@@H]2C[C@@H](SCc3ccc(Cl)cc3)[C@H](C(=O)O)CN2S(=O)(=O)c2ccc(C)cc2)cc1` = 3.1 to 3.7%

====

- Species on record: Rattus norvegicus
- testMethodNotes: Inhibition of rat recombinant geranylgeranyltransferase type I expressed in Escherichia coli assessed as residual enzyme activity for geranylgeranylation of K-Ras4B at 50 uM incubated for 30 mins in presence of [3H]GGPP by scintillation counting assay relative to control
Quick reference for Activity among some compounds
Provide the reading as a plain figure in %.

COc1ccc([C@@H]2C[C@@H](Sc3ccc(C)cc3)[C@H](C(=O)O)CN2S(=O)(=O)c2ccc(Cl)cc2)cc1; 83.2

Activity recorded for this compound, `CS(=O)(=O)N1[C@@H](c2cccc(F)c2)C(C(=O)O)=CC[C@H]1c1ccc(Cl)cc1` , is 69.9
